Tested on: G-clamp-N3 (biotin conjugate)
experiment.notes: pull-down binding Z-score (relative to library population); higher = stronger binding
condition.notes: RNA library: Library-1 (pre-miRNA loops + repeats)
quantity.name: pull-down binding Z-score

[
  {
    "record.sequence": "CAUGCAGCAUGCUUGUCUG [hsa-mir-767]",
    "reported": -0.359
  },
  {
    "record.sequence": "CUGCAGUGAGCGAUCGGUGCUCUGGGG [hsa-mir-503]",
    "reported": 1.34
  },
  {
    "record.sequence": "UUUCUGAAUUUGUGAGA [hsa-mir-4463]",
    "reported": -0.0109
  },
  {
    "record.sequence": "GGUUUUGCCAUCAUGCCAAAAGCU [hsa-mir-548v]",
    "reported": -0.76
  },
  {
    "record.sequence": "CAACUACUCAGGAGGCUG [hsa-mir-566]",
    "reported": -0.123
  },
  {
    "record.sequence": "UGUUGAGCGCAGUAAGACAACA [hsa-mir-3529]",
    "reported": 0.892
  },
  {
    "record.sequence": "UCCAGUGUGGCUCGGAGGCUGGA [hsa-mir-139]",
    "reported": 3.31
  },
  {
    "record.sequence": "CGUGCACGUACCUGUCACAUGUGUACG [hsa-mir-3939]",
    "reported": -0.021
  },
  {
    "record.sequence": "CCCAUAUGGACCUGCUAAGCUAUGGA [hsa-mir-1-1]",
    "reported": -0.475
  },
  {
    "record.sequence": "UUUGUCAUUUAAAAGUAAUGGCAAA [hsa-mir-548ae-2]",
    "reported": 0.815
  },
  {
    "record.sequence": "UUCAUUCAUUCGUUUGCACAUUCGGUGAA [hsa-mir-493]",
    "reported": 0.183
  },
  {
    "record.sequence": "AAUGCAGUCUGCACCCUGCUGCAUU [hsa-mir-6504]",
    "reported": -0.398
  }
]
